molecular target: SIK2 (Homo sapiens); experiment: SIK2 Enzymatic Assay Version 1 (ADP Glo); type: biochemical; conditions: enzyme 0.6 nM, 160 μM ATP and 140 μM HDAC5tide (each 2× final concentration); 30 minutes pre-incubation, 4 hours; ADPGlo luminescence; read-out: SIK2 ADP Glo IC50 (μM) (Test Example 1)
Sequence (Q9H0K1 whole entry, species assumed): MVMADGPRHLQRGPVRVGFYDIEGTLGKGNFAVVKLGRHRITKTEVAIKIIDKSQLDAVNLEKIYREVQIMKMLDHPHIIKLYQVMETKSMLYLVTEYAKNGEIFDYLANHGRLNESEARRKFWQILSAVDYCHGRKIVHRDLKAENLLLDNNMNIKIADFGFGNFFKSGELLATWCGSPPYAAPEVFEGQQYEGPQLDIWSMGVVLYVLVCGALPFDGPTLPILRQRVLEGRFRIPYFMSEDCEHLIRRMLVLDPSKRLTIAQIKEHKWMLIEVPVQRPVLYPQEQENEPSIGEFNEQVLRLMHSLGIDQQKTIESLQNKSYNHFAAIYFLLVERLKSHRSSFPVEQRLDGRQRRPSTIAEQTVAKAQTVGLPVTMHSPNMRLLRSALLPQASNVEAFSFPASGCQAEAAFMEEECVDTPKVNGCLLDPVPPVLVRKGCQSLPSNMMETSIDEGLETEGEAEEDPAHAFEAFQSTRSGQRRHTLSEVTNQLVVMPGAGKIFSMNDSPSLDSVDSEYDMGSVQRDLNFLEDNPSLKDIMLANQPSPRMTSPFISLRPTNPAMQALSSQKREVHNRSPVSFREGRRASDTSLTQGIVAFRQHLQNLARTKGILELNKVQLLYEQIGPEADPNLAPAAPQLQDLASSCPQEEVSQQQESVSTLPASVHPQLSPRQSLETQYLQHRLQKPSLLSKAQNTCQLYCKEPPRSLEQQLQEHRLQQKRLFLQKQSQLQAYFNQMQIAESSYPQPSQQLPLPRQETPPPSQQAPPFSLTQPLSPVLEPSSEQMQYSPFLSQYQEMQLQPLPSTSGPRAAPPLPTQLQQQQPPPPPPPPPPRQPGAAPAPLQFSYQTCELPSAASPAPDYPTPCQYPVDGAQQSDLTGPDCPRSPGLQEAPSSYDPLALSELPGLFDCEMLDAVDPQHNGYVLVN
Lab note - cut at 0.003 µM for IC50: Satisfied if strictly below, Not satisfied if not.

Compound	Group label
C[C@]1(O)CC[C@@H](Oc2cnc(C#N)cc2-c2ccn3nc(NC(=O)C4CC4)cc3c2)CC1 [Example 89]	Satisfied
Cn1cc(Nc2cnc(C#N)cc2-c2ccn3nc(NC(=O)C4CC4)cc3c2)cn1 [Example 79]	Not satisfied
COc1cccc(C)c1-c1ccn2nc(NC(=O)C3CC3)cc2c1 [Example 746]	Not satisfied
Cc1cc(-c2ccn3nc(NC(=O)C4CC4)cc3c2)c(O[C@H]2C[C@H]3COC[C@@H](C2)N3)cn1 [Example 136]	Satisfied
Cc1cc(-c2ccn3nc(Nc4cc(C)nc(C)n4)cc3c2)c(OC[C@H]2CC[C@@H](O)CO2)cn1 (single isomer, unassigned) [Example 582]	Not satisfied
Cc1cc(-c2cn3cc(NC(=O)C4CC4)nc3cn2)c(OCC(C)(C)C#N)cn1 [Example 508]	Not satisfied
Cc1cc(-c2ccn3nc(NC(=O)C4CC4)cc3c2)c(O[C@H]2C[C@](C)(N)C2)cn1 [Example 444]	Satisfied
N#Cc1cc(-c2ccn3nc(NC(=O)C4CC4)cc3c2)c(O[C@@H]2CCN(C3CC3)C2)cn1 [Example 25]	Satisfied
Cc1cc(-c2ccn3nc(NC(=O)C4CC4)cc3c2)c(O[C@@H]2CNC[C@H](C(F)(F)F)C2)cn1 (single isomer, unassigned) [Example 445]	Satisfied
Cc1cc(-c2ccn3nc(NC(=O)C4CC4)cc3c2)c(OCC2(N)CC(F)(F)C2)cn1 [Example 145]	Satisfied
N#Cc1cc(-c2ccn3nc(NC(=O)C4CC4)cc3c2)c(NCC2CC2)cn1 [Example 76]	Not satisfied
Cc1cc(-c2ccn3nc(NC(=O)C4CC4)cc3c2)c(O[C@H]2CC[C@H](O)CC2)cn1 [Example 158]	Satisfied
CN[C@H]1C[C@@H](COc2cnc(C#N)cc2-c2ccn3nc(NC(=O)C4CC4)cc3c2)C1 [Example 98]	Satisfied
CN1CCOC[C@H](Oc2cnc(C#N)cc2-c2ccn3nc(NC(=O)C4CC4)cc3c2)C1 [Example 12]	Not satisfied
Cn1ccc(N[C@H]2C[C@@H](COc3cnc(C#N)cc3-c3ccn4nc(NC(=O)C5CC5)cc4c3)C2)n1 [Example 177]	Satisfied
N#Cc1ccc(OC[C@@H]2CNCCO2)c(-c2ccn3nc(NC(=O)C4CC4)cc3c2)c1 [Example 103]	Not satisfied
N#Cc1cc(-c2ccn3nc(NC(=O)C4CC4)cc3c2)c(O[C@H]2C[C@H]3CC[C@@H](C2)N3)cn1 [Example 82]	Satisfied
Cc1cc(-c2ccn3nc(Nc4cnn(C)c4)cc3c2)c(OC2CN(C)C2)cn1 [Example 568]	Not satisfied
Cc1cc(-c2ccn3nc(NC(=O)C4CC4)cc3c2)c(OC[C@@H]2CNCCO2)cn1 [Example 143]	Satisfied
CC(C)(C)OC(=O)N1CC2(CC(Oc3cnc(C#N)cc3-c3ccn4nc(NC(=O)C5CC5)cc4c3)C2)C1 [Example 34]	Not satisfied
N#CCN[C@H]1C[C@@H](COc2cnc(C#N)cc2-c2ccn3nc(NC(=O)C4CC4)cc3c2)C1 [Example 596]	Satisfied
N#Cc1cc(-c2ccn3nc(NC(=O)C4CC4)cc3c2)c(OC[C@@H]2CC[C@H](N)C2)cn1 [Example 20]	Satisfied
Cc1cc(-c2ccn3nc(Nc4cc(C)nc(C)n4)cc3c2)c(OCC(C)(C)O)nn1 [Example 600]	Not satisfied
N#Cc1cc(-c2ccn3nc(NC(=O)C4CC4)cc3c2)c(O[C@H]2CCN(Cc3ccccn3)C2)cn1 [Example 109]	Not satisfied
N#Cc1ccc(OC[C@@H]2CCNC2)c(-c2ccn3nc(NC(=O)C4CC4)cc3c2)c1 [Example 476]	Not satisfied
N#Cc1cc(-c2ccn3nc(NC(=O)C4CC4)cc3c2)c(OCC2CCC(O)(C(F)(F)F)CC2)cn1 (racemic) [Example 178]	Satisfied
Cc1ccnc(Nc2cc3cc(-c4cc(C)ncc4OC[C@@H]4CNCCO4)ccn3n2)c1 [Example 427]	Satisfied
Cc1cc(-c2ccn3nc(Nc4cc(C)nc(C)n4)cc3c2)c(OC[C@@H]2CNCCO2)cn1 [Example 432]	Satisfied
Cc1cc(-c2ccn3nc(NC(=O)C4CC4)cc3c2)c(OC[C@H]2CNCCO2)cn1 [Example 166]	Satisfied

// data source = patent US20240158392A1
